Biological target: Alpha-2C adrenergic receptor (Homo sapiens, UniProt P18825)
Sequence (P18825 whole entry): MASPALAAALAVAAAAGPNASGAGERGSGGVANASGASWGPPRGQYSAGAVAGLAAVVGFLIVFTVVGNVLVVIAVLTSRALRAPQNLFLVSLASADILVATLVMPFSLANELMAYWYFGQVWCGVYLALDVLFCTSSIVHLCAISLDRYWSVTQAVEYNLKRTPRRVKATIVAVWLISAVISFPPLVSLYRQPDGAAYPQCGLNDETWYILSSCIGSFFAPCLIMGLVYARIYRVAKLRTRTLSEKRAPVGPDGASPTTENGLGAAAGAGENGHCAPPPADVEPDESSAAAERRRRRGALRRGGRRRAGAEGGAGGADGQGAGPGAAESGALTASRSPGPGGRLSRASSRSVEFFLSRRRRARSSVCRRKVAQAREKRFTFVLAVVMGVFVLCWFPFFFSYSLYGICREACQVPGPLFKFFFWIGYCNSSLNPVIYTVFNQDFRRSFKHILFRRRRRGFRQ
pKi: −log10 of the molar value.
PARAMETER: pKi

INSERT INTO measurements (molecule, measured) VALUES
  ('CC(C)C1C2CCC(C2)C1N (stereo unspecified)', '< 4.70');
